biological target: T1, MA Peptide (fluorescence polarization); experiment: fluorescence polarization, FITC peptide titrated with protein
T1 peptide: MAKLDEESILKQK(FITC)
No end group written: not given here. *: point of attachment. FITC = O=C1OC2(c3ccc(O)cc3Oc3cc(O)ccc32)c2ccc(NC(=S)*)cc21
property-name: Kd
Kindly report the value followed by its unit.

Consider the following illustrative entries.
binder	Kd
PS824 (designed binder, Variant of PS557) MPTAASATESAFEDTPAPARPEVDGRTKPKRQPRYHVVLWDDDDHTYQYVVVMLRSLFGHPPERGYRLAKEMDTQGRVIVLTTTREHAELKRDQIHAFGYDRLLARSKGSMKASIEAEE	648 nM
PS852 (designed binder, Variant of PS557) MPTAASATESAIEDTPAPARPEVDGRTKPKHQPRYHVVLWDDDDHTYQYVVVMLRSLFGHPPERGYRLAKEMDTQGRVIVLTTTREHAELKRDQIHAFGYDRLLARSKGSMKASIEAEE	1140 nM
PS816 (designed binder, Variant of PS557; also called N41D, V72M) MPTAASATESAIEDTPAPARPEVDGRTKPKRQPRYHVVLWDDDDHTYQYVVVMLQSLFGHPPERGYRLAKEMDTQGRVIVLTTTREHAELKRDQIHAFGYDRLLARSKGSMKASIEAEE	805 nM

Turning to the following binder.
Reported Kd ( PS833 (designed binder, Variant of PS557) MPTAASATESAIEDTPAPARPVVDGRTKPKRQPRYHVVLWDDDDHTYQYVVVMLQSLFGHPPERGYRLAKEMDTQGRVIVLTTTREHAELKRDQIHAFGYDRLLARSKGSMKASIEAEE ) = 1040 nM
